# Tested on: Escherichia coli TOP10
# measurementProtocol: shrunken log2 fold change of peptide-encoding DNA abundance (4.5 h post-induction vs induction); higher = less antimicrobial activity (less host growth inhibition)
# testConditions: time post-induction: 4.5 h; library: site-saturation at positions 5, 18, 19, 20
Criterion: shrunken log2 fold change meeting or surpassing 0.02. Met: 1 (yes). Not met: 0 (no).

Given the entry "RRIRARPPRLPRPRPRPHDGPRP" , answer whether its shrunken log2 fold change meets or surpasses 0.02.
1 (yes)

Confirm if shrunken log2 fold change reported for the sequence "RRIRYRPPRLPRPRPRPTHTPRP" is 0.02 or above.
1 (yes)

Check if shrunken log2 fold change >= 0.02 (inclusive). Item: "RRIRLRPPRLPRPRPRPIVQPRP"
0 (no)

Dear colleague, could you confirm whether "RRIRTRPPRLPRPRPRPCWIPRP" has shrunken log2 fold change at or above 0.02?
0 (no)

Test whether the sequence "RRIRLRPPRLPRPRPRPMGQPRP" records shrunken log2 fold change of 0.02 or higher.
1 (yes)

Tell me whether shrunken log2 fold change is at least 0.02 here: "RRIRMRPPRLPRPRPRPKVMPRP"
1 (yes)

Quick check: does "RRIRTRPPRLPRPRPRPAIEPRP" have shrunken log2 fold change greater than or equal to 0.02?
1 (yes)

Quick check: does "RRIRTRPPRLPRPRPRPHIQPRP" have shrunken log2 fold change greater than or equal to 0.02?
0 (no)

Please indicate if the recorded shrunken log2 fold change for "RRIRVRPPRLPRPRPRPYPVPRP" meets or exceeds 0.02.
0 (no)

Would you say "RRIRRRPPRLPRPRPRPKSHPRP" shows shrunken log2 fold change at minimum 0.02?
0 (no)

Would you say "RRIRLRPPRLPRPRPRPFNAPRP" shows shrunken log2 fold change at minimum 0.02?
0 (no)

Check this sequence for shrunken log2 fold change at or above 0.02: "RRIRPRPPRLPRPRPRPVDPPRP"
1 (yes)

Is it the case that "RRIRMRPPRLPRPRPRPKAGPRP" has shrunken log2 fold change reaching or exceeding 0.02?
1 (yes)

Is shrunken log2 fold change for "RRIRWRPPRLPRPRPRPSLMPRP" at or above 0.02?
1 (yes)

Entry "RRIRRRPPRLPRPRPRPFMFPRP" : is its shrunken log2 fold change no less than 0.02?
1 (yes)

---

# Tested on: Escherichia coli TOP10
# measurementProtocol: shrunken log2 fold change of peptide-encoding DNA abundance (4.5 h post-induction vs induction); higher = less antimicrobial activity (less host growth inhibition)
# testConditions: time post-induction: 4.5 h; library: site-saturation at positions 5, 18, 19, 20
measuredQuantity: shrunken log2 fold change
Just the number, please, no unit attached.

RRIRWRPPRLPRPRPRPICVPRP :: -0.12

Give the value of shrunken log2 fold change reported for the following: "RRIRERPPRLPRPRPRPRAKPRP"
0.192

Name the recorded shrunken log2 fold change of the sequence listed here: "RRIRIRPPRLPRPRPRPCDPPRP"
0.00225

Specify shrunken log2 fold change for "RRIRIRPPRLPRPRPRPYRGPRP" and stop.
-0.155

Name the recorded shrunken log2 fold change of the item "RRIRTRPPRLPRPRPRPTQVPRP" in your answer.
0.131

Entry "RRIRGRPPRLPRPRPRPPYGPRP" needs its shrunken log2 fold change filled in; supply it.
0.341

Give a short answer stating reported shrunken log2 fold change for "RRIRIRPPRLPRPRPRPRCAPRP" .
0.204

Look up and report measured shrunken log2 fold change for this entry: "RRIRQRPPRLPRPRPRPHLCPRP"
0.0292

Tell me its shrunken log2 fold change given "RRIRWRPPRLPRPRPRPIGVPRP" as the entry.
0.0389

Specify measured shrunken log2 fold change for "RRIRVRPPRLPRPRPRPNWEPRP" .
0.104

Input "RRIRSRPPRLPRPRPRPWKTPRP" , output reported shrunken log2 fold change.
-0.0527

Consider the sequence "RRIRRRPPRLPRPRPRPLDNPRP" and give its recorded shrunken log2 fold change.
-0.0599

For the sequence "RRIRNRPPRLPRPRPRPIQRPRP" , report shrunken log2 fold change.
0.00743

Please look at this sequence and report its shrunken log2 fold change: "RRIRWRPPRLPRPRPRPYYEPRP"
-0.742

Provide measured shrunken log2 fold change value, entry: "RRIRERPPRLPRPRPRPWRFPRP"
-0.117

Hello, please tell me recorded shrunken log2 fold change for this one: "RRIRIRPPRLPRPRPRPEGCPRP"
-0.0356

// Input: "RRIRCRPPRLPRPRPRPYYGPRP" . Output its shrunken log2 fold change only.
-0.199

---

# System: Escherichia coli TOP10
# measurementProtocol: shrunken log2 fold change of peptide-encoding DNA abundance (4.5 h post-induction vs induction); higher = less antimicrobial activity (less host growth inhibition)
# testConditions: time post-induction: 4.5 h; library: site-saturation at positions 5, 18, 19, 20
Catalogue of shrunken log2 fold change readings, one per entry.
Give your answer as a number; write no unit.

These solved cases illustrate the format of a correct answer.
RRIRRRPPRLPRPRPRPIMAPRP :: 0.107
RRIRTRPPRLPRPRPRPRVIPRP :: -0.12
RRIRWRPPRLPRPRPRPGPLPRP :: 0.0252
RRIRERPPRLPRPRPRPNINPRP :: -1.05
RRIRDRPPRLPRPRPRPAFTPRP :: -0.155
RRIRQRPPRLPRPRPRPMFFPRP :: -0.0364
RRIRGRPPRLPRPRPRPECGPRP :: 1.71
RRIRVRPPRLPRPRPRPWSAPRP :: -0.135

Next sequence, shrunken log2 fold change to be filled in.
For the sequence "RRIRHRPPRLPRPRPRPIRYPRP" , report shrunken log2 fold change.
0.0301

---

# Tested on: Escherichia coli TOP10
# measurementProtocol: shrunken log2 fold change of peptide-encoding DNA abundance (4.5 h post-induction vs induction); higher = less antimicrobial activity (less host growth inhibition)
# testConditions: time post-induction: 4.5 h; library: site-saturation at positions 5, 18, 19, 20
measuredQuantity: shrunken log2 fold change
Answer with a number only.

Solved cases below.
RRIRERPPRLPRPRPRPKPIPRP :: -0.128
RRIRKRPPRLPRPRPRPWRSPRP :: -0.0167
RRIRNRPPRLPRPRPRPGIEPRP :: -0.0795

Next, consider the following sequence.
Give shrunken log2 fold change; test system Escherichia coli TOP10; sequence "RRIRWRPPRLPRPRPRPMHAPRP"
0.542

---

# System: Escherichia coli TOP10
# measurementProtocol: shrunken log2 fold change of peptide-encoding DNA abundance (4.5 h post-induction vs induction); higher = less antimicrobial activity (less host growth inhibition)
# testConditions: time post-induction: 4.5 h; library: site-saturation at positions 5, 18, 19, 20
measuredQuantity: shrunken log2 fold change

RRIRNRPPRLPRPRPRPMLCPRP :: 0.0164
RRIRSRPPRLPRPRPRPYFAPRP :: -0.645
RRIRDRPPRLPRPRPRPCVRPRP :: -0.111
RRIRKRPPRLPRPRPRPCLFPRP :: 0.0241
RRIRYRPPRLPRPRPRPWIAPRP :: -0.791

Provide shrunken log2 fold change value for the following sequence: "RRIRSRPPRLPRPRPRPANNPRP"
-0.367

Identify the reported shrunken log2 fold change for the following entry. "RRIRVRPPRLPRPRPRPWGSPRP"
-0.137

Retrieve shrunken log2 fold change measured for "RRIRMRPPRLPRPRPRPVPFPRP" and print it.
0.179

Kindly indicate its recorded shrunken log2 fold change. Item: "RRIRWRPPRLPRPRPRPFLHPRP"
-0.772

Give the reported shrunken log2 fold change for this sequence. "RRIRSRPPRLPRPRPRPMKEPRP"
-0.338

---

# Test system: Escherichia coli TOP10
# measurementProtocol: shrunken log2 fold change of peptide-encoding DNA abundance (4.5 h post-induction vs induction); higher = less antimicrobial activity (less host growth inhibition)
# testConditions: time post-induction: 4.5 h; library: site-saturation at positions 5, 18, 19, 20
Assign y to entries whose shrunken log2 fold change meets or exceeds -0.01; assign n to the rest.

These recorded examples may help you get a feel for the data.
RRIRYRPPRLPRPRPRPCMDPRP :: n
RRIRLRPPRLPRPRPRPPVYPRP :: y
RRIRLRPPRLPRPRPRPKEGPRP :: n
RRIRRRPPRLPRPRPRPDHFPRP :: y
RRIRPRPPRLPRPRPRPSCWPRP :: y

Form field: shrunken log2 fold change at least -0.01? Entry: "RRIRFRPPRLPRPRPRPRCEPRP"
n

Does the sequence "RRIRVRPPRLPRPRPRPSVAPRP" have recorded shrunken log2 fold change that is -0.01 or more?
y

API: above_or_equal(metric=shrunken log2 fold change, cutoff=-0.01) for item "RRIRPRPPRLPRPRPRPCNNPRP"
n

---

# Test system: Escherichia coli TOP10;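 also: peptides expressed intracellularly from a pBAD plasmid library in pooled LB shake-flask culture, induced with 0.3% L-arabinose, DNA abundance read by NGS, three biological replicates, DESeq2 with apeglm shrinkage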
# measurementProtocol: shrunken log2 fold change of peptide-encoding DNA abundance (4.5 h post-induction vs induction); higher = less antimicrobial activity (less host growth inhibition)
# testConditions: time post-induction: 4.5 h; library: site-saturation at positions 5, 18, 19, 20
Reported shrunken log2 fold change values are given for each entry in this list.
I only need the number, thanks.

RRIRGRPPRLPRPRPRPDENPRP :: 0.987
RRIRARPPRLPRPRPRPPLWPRP :: 1.17
RRIRMRPPRLPRPRPRPQRGPRP :: 1.24
RRIRNRPPRLPRPRPRPWSEPRP :: 0.0632
RRIRSRPPRLPRPRPRPMFVPRP :: -0.0773
RRIRCRPPRLPRPRPRPSWHPRP :: -0.488
RRIRTRPPRLPRPRPRPFQWPRP :: -0.0875
RRIRQRPPRLPRPRPRPETSPRP :: -0.192

Quick one: give measured shrunken log2 fold change for "RRIRRRPPRLPRPRPRPLSPPRP"
0.411
